Ref: paper PMC11024299

target: the molecule itself; assay: crystal structure; vapor diffusion crystals grown at 19°C, protein supplemented with 0.5%-1% DDM; data at 100 K; molecular replacement with WT ReAV (PDB 7os5); homodimer(s) in the asymmetric unit
readout_type: binding result

ReAV H139A (enzyme, Rhizobium etli, Homodimer in the crystal (two dimers per asymmetric unit); also called H139A mutant; Rhizobium etli Class 3 L-asparaginase ReAV H139A mutein; source: E. coli BL21 Gold, purified (HisTrap, TEV digestion, Superdex 200)) MTPSEDFVVTDRGGIVENSHRVHAAVVDAKGRLLYALGNPTRMTLARSAAKPAQALAILETEGVAGYGFDDADIALMCASHSSEDRHIARTRAMLSKIKAEEADLRCGGHPSLSEMVNRSWIKQDFIPTAVCSNCSGKAVGMLAGARAIGAGTDGYHLPDHPMQGRVKRTVAELCDLDAGDVEWGTDGCNLPTPAFPLDRLGRIYAKLASAADGSDAGEGQSTRCAALAHIFRAMARHPEMVAGEGRYCTMLMRAFDGALVGKLGADASYAIGVRASDATRQLGTDGALGISVKIEDGNLEMLYAVVTELLERLGIGSPDVRSQLASFHHPQRVNTMGVTTGGVSFPFKLRGSKSNVDDPRLAAVAR: binds
ReAV D187A (enzyme, Rhizobium etli, Homodimer in the crystal (two dimers per asymmetric unit); also called D187A mutant; Rhizobium etli Class 3 L-asparaginase ReAV D187A mutein; source: E. coli BL21 Gold, purified (HisTrap, TEV digestion, Superdex 200)) MTPSEDFVVTDRGGIVENSHRVHAAVVDAKGRLLYALGNPTRMTLARSAAKPAQALAILETEGVAGYGFDDADIALMCASHSSEDRHIARTRAMLSKIKAEEADLRCGGHPSLSEMVNRSWIKQDFIPTAVCSNCSGKHVGMLAGARAIGAGTDGYHLPDHPMQGRVKRTVAELCDLDAGDVEWGTAGCNLPTPAFPLDRLGRIYAKLASAADGSDAGEGQSTRCAALAHIFRAMARHPEMVAGEGRYCTMLMRAFDGALVGKLGADASYAIGVRASDATRQLGTDGALGISVKIEDGNLEMLYAVVTELLERLGIGSPDVRSQLASFHHPQRVNTMGVTTGGVSFPFKLRGSKSNVDDPRLAAVAR: binds
